target: Acetylcholinesterase (Electrophorus electricus)
Sequence (O42275 whole entry): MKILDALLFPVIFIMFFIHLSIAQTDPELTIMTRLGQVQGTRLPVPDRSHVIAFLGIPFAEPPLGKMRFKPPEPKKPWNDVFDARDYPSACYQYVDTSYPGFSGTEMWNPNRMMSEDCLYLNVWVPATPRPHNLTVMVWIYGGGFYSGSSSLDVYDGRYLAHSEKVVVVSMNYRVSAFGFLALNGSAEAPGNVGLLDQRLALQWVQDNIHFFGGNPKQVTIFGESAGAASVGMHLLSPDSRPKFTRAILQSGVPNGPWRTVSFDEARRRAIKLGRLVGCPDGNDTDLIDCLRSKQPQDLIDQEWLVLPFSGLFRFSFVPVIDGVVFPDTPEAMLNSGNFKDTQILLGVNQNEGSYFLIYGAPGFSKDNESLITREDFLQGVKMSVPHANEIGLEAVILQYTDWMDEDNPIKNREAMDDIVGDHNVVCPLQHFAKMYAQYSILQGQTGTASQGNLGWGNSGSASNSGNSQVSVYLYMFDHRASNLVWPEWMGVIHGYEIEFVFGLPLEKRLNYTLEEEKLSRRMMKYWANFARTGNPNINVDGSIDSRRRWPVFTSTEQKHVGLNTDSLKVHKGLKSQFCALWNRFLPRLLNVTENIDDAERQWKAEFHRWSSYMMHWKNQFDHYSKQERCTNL
pIC50: −log10 of the molar value.
So basically: pIC50 at 7 or higher? That is True. Lower than 7? That is False.

**Query** Does pIC50 meet or surpass 7 for `COc1ccc2nc(NC(=O)CN3CCN(Cc4ccc(Cl)cc4)CC3)sc2c1` ?
**Result** False

**Query** Does pIC50 meet or surpass 7 for `COc1cc2nc(NC(=O)CN3CCN(Cc4ccc(C)cc4)CC3)sc2cc1OC` ?
**Result** False

**Query** Does pIC50 meet or surpass 7 for `COc1cc2nc(NC(=O)CN3CCN(CCCN(C)C)CC3)sc2cc1OC` ?
**Result** True

**Query** Does pIC50 meet or surpass 7 for `COc1cc2nc(NC(=O)CN3CCN(Cc4ccc(C(F)(F)F)cc4)CC3)sc2cc1OC` ?
**Result** False

**Query** Does pIC50 meet or surpass 7 for `COc1ccc(CN2CCN(CC(=O)Nc3nc4cc(OC)c(OC)cc4s3)CC2)cc1` ?
**Result** False

Just for reference, ChEMBL document CHEMBL3864165 is where these values come from.
